Experiment: Pharmacokinetics after intravenous bolus injection
Assay type: in vivo, rat
Settings: single i.v. bolus; GPE 30 mg/kg, G-2-MePE 10 mg/kg; mean±standard error
Where a SMILES comes first, the peptide text is derived from it.
Outcome measure: peak plasma concentration (µg/mL)
Write the value in µg/mL as a bare number.

Compound	peak plasma concentration / µg/mL
C[C@@]1(C(=O)N[C@@H](CCC(=O)O)C(=O)O)CCCN1C(=O)CN [Example G-2-MePE, Glycyl-L-2-methylprolyl-L-glutamic acid] (HELM PEPTIDE1{G.[C[C@@]1(C(=O)[*:2])CCCN1[*:1]].E}$$$$V2.0)	191

Next compound, peak plasma concentration to be filled in.
Prompt line: Bench note: what peak plasma concentration did NCC(=O)N1CCC[C@H]1C(=O)N[C@@H](CCC(=O)O)C(=O)O [GPE, glycyl-L-prolyl-L-glutamic acid, reference compound] show?
Response line: 40

Measured values drawn from patent US20150224164A1 for this set.
